Where do the numbers come from? From PubChem BioAssay (NCI).

# Tested on: NCI-H23 lung
# assay-overview: NCI tumour cell line growth inhibition, 48 h
attribute-measured: TGI (µM)

compound	reported-relation	recorded-measurement
O=c1[nH]c2nc[nH]c2c(=O)n1C1CCCCC1	>	100
Cn1c(C(=O)c2cccc3ccccc23)nc2ccccc21	>	100
CC(=O)OCC(CC[CH2][Sn]([Cl])([Cl])[c]1ccccc1)OC(C)=O (stereo not given)	=	39.4
CN1CCC/C1=C1/C(=O)N(c2ccccc2)N=C1c1ccc[nH]1	>	100
O=c1ccc2ccccc2c2ccccc12	=	6.33
Cc1ccc(S(=O)(=O)NC(=O)Nc2cc(Cl)c(S(N)(=O)=O)cc2S(N)(=O)=O)cc1	>	100
Cc1ccc(S(=O)(=O)N2CC(CCN)c3ccccc32)cc1 (stereo not given)	>	52.6
C/C(=N\NC(=O)C(N)=O)c1c(O)cc(C)oc1=O	>	100
Clc1nc(Cl)c2ncn(CCOCCn3cnc4c(Cl)nc(Cl)nc43)c2n1	=	0.401
O=C1C=C(C2=C(C3=CC(=O)c4ccccc4C3=O)C(=O)c3ccccc3C2=O)C(=O)c2ccccc21	=	19.7
c1ccc(COC2C3COC(O3)C(OCc3ccccc3)C2OCc2ccccc2)cc1 (stereo not given)	>	100
CSc1ccc2c(cc1=O)C(NC(=O)c1ccc(C#N)cc1)CCc1cc(O)c(O)c(O)c1-2 (stereo not given)	=	71.3
Cc1ccc(/N=N/C(=NNC(=O)c2ccc(C)cc2)c2ccc(N(C)C)cc2)cc1	=	69.3
O=C1c2ccccc2C(=O)c2c1cc1c(c2[N+](=O)[O-])OCO1	=	8.29
C[C@@]1(OC(=O)c2cc([N+](=O)[O-])cc([N+](=O)[O-])c2)C[C@@H]2CCCC[C@@H]21	>	100

----------
# Tested on: MCF7 breast
# assay-overview: NCI tumour cell line growth inhibition, 48 h
attribute-measured: TGI (µM)

compound	reported-relation	recorded-measurement
COc1ccc(C2CC(c3ccc(N(C)C)cc3)=NN2c2ccc(S(N)(=O)=O)cc2)cc1 (stereo not drawn)	=	21.7
c1n[nH]cc1C12C3C4C5C3C1C5C42 (stereo not drawn)	>	100
CN1CCC/C1=C1/C(=O)N(c2ccccc2)N=C1c1ccc[nH]1	>	100
CC1CCC2C(CN(CC3=C(C(F)(F)F)OC4OC5(C)CCC6C(C)CCC3C46OO5)CC3=C(C(F)(F)F)OC4OC5(C)CCC6C(C)CCC3C46OO5)=C(C(F)(F)F)OC3OC4(C)CCC1C32OO4 (stereo not drawn)	=	59.9
c1ccc(C2=C(c3ccccc3)Sc3nnc(CCCCCCCCc4nnc5n4NC(c4ccccc4)=C(c4ccccc4)S5)n3N2)cc1	>	100
O=C1C(Sc2ccc3ccccc3c2)=C(Sc2ccc3ccccc3c2)C(=O)c2ccccc21	=	40.2
CCOC(=O)C(Cc1ccc(N(CCCl)CCCl)cc1)NC(=O)C(Cc1ccccc1)NC(C)=O (stereo not drawn)	=	0.496
O=C(Nc1ccc2[nH]c(C(=O)N3CC(CCl)c4ccc([N+](=O)[O-])cc43)cc2c1)c1cc2ccccc2o1 (stereo not drawn)	>	1100

----------
# Tested on: MDA-MB-231 breast
# assay-overview: NCI tumour cell line growth inhibition, 48 h

molecule	result-unit	reported-relation	TGI
CCn1ccnc1C(=O)/C=C/c1ccc(CC(=O)Nc2ccc(F)cc2)cc1	µM	>	16.7
N#Cc1cccc(Nc2ncc(-c3ccccc3)o2)c1	µM	>	25
N#C/C(=C\c1cc2ccc(N3CCC3)cc2oc1=O)C(=O)N(CC(=O)O)CC(=O)O	µM	>	100
Cc1ccc(S(=O)(=O)NC(=O)Nc2cc(Cl)c(S(N)(=O)=O)cc2S(N)(=O)=O)cc1	µM	>	100
COc1cc2c(cc1NC(=O)C(Cl)Cl)-c1ccc(NC(=O)C(Cl)Cl)cc1C2	µM	=	2
C=C(CCC=C(C)C)C1CC=C(C)CC1 (stereo not given)	µM	=	97.6
C=C1C(=O)O[C@H]2[C@H]1CC/C(COC(=O)NCc1c[nH]c3ccc(F)cc13)=C\CC[C@@]1(C)O[C@@H]21	µM	=	3.16
CNC(=O)N1N[C@H](c2ccccc2)[C@@H]1c1ccccc1	µM	>	100
C[C@@]1(OC(=O)c2cc([N+](=O)[O-])cc([N+](=O)[O-])c2)C[C@@H]2CCCC[C@@H]21	µM	>	100
CN(C)CCCn1c2c(c3cc4c(cc3c1=O)OCO4)C(=O)c1ccccc1-2	µM	=	4.29

----------
# System: IGROV1 ovarian
# assay-overview: NCI tumour cell line growth inhibition, 48 h
attribute-measured: TGI

smiles-repr	attribute-measured	recorded-measurement
c1ccc2c(-c3csc(-c4c[nH]c5ccccc45)n3)c[nH]c2c1	TGI	> 100 µM
CS(=O)(=O)C1(Br)S(=O)(=O)OCCOS1(=O)=O	TGI	> 100 µM
C[P+]1(c2ccccc2)CCCCC1	TGI	> 100 µM
C[C@H]1C[C@H]2[C@@H]3CCC4=CC(=O)C=C[C@]4(C)C3=CC[C@]2(C)[C@@]1(O)C(=O)CO	TGI	> 100 µM
Cc1ccc(S(=O)(=O)NC(=O)OC23COCN2COC3)cc1	TGI	> 100 µM
O=C(O)CCCc1ccccc1	TGI	> 1000 µM

----------
# TGI per record follows
# Tested on: HCT-15 colon
# assay-overview: NCI tumour cell line growth inhibition, 48 h

compound	reported-relation	TGI, µM
CCOC(=O)C(Cc1ccc(N(CCCl)CCCl)cc1)NC(=O)C(Cc1ccccc1)NC(C)=O (stereo not given)	>	1
CC1CCN(CCOc2ccc(CNc3ccc4nc(CCC5CCCCC5)[nH]c4c3)cc2)CC1	=	3.03
N#CNC1=NC(N)C(c2nc3ccccc3[nH]2)=C(CCCC(=O)Nc2cccc([N+](=O)[O-])c2)N1 (stereo not given)	>	100
O=C(O)CC12CC3CC(CC(O)(C3)C1)C2	>	100
O=[N+]([O-])/C=C/c1ccc(Cl)cc1Cl	=	46.4
CC(=O)OCC(CC[CH2][Sn]([Cl])([Cl])[c]1ccccc1)OC(C)=O (stereo not given)	=	32.1
O=C1C=C(C2=C(C3=CC(=O)c4ccccc4C3=O)C(=O)c3ccccc3C2=O)C(=O)c2ccccc21	=	28.9
N#Cc1cccc(Nc2ncc(-c3ccccc3)o2)c1	>	25
Nc1[nH]c(=O)[nH]c(=O)c1Cc1cccc(Cl)c1	>	100
O=c1n(-c2ccccc2)c(=O)n2c(-c3ccccc3)c(-c3ccccc3)n12	>	100
O=C(NCCCCCCCN1CCCCCCC1)C(C1CCCCC1)C1CCCCC1	=	15.2
C[C@@H](NC(=O)c1ccc(F)cc1)c1ccc2c(c1)CCN2C(=O)C1CCOCC1	>	100
C=C1C=CC2(Br)OC3CC(C)(Cl)C(Br)CC13C2(C)C (stereo not given)	=	51.3
C[C@H]1CN(C2COC2)CCN1c1ccc(Nc2cc(-c3ccnc(N4CCn5c(cc6c5CC(C)(C)C6)C4=O)c3CO)cn(C)c2=O)nc1	>	100
CC1CCC2C(CN(CC3=C(C(F)(F)F)OC4OC5(C)CCC6C(C)CCC3C46OO5)CC3=C(C(F)(F)F)OC4OC5(C)CCC6C(C)CCC3C46OO5)=C(C(F)(F)F)OC3OC4(C)CCC1C32OO4 (stereo not given)	=	25.7

----------
# System: SW-620 colon
# assay-overview: NCI tumour cell line growth inhibition, 48 h

molecule	GI50
NCc1ccc(-c2nc(-c3ccc(Cl)c(O)c3)c(-c3ccncc3)[nH]2)cc1	24.2 µM
O=C1/C(=C/c2ccccc2[N+](=O)[O-])COc2ccc(O)cc21	0.448 µM
COc1c(OC(C)C)cc2cc(O)c(C(=O)NC3Cc4ccc(c(Cl)n4)O[C@@H]4C=C5C#C/C(=C\C#CC6OC56C4OC4CC(C)(O)C(O)C(C)O4)C(OC4CC(O)C(N(C)C)C(C)O4)COC3=O)cc2c1OC (some centres not stated)	0.165 µg/mL
CC(=O)OCC(CC[CH2][Sn]([Cl])([Cl])[c]1ccccc1)OC(C)=O (configuration not stated)	16.7 µM
COc1ccc2nc3cc(Cl)ccc3c(N3CCN(c4ccnc(N5CCN(C)CC5)n4)CC3)c2c1	1.8 µM
C=CC[N+]1(CC)CCN=C1CCCCCCCCCCCCCCCCC (configuration not stated)	0.499 µM
COC1=C(OC)C(=O)C(CCCCCCCCCCO)=C(C)C1=O	14.7 µM

----------
# Test system: UO-31 renal
# assay-overview: NCI tumour cell line growth inhibition, 48 h
# GI50 per record follows

smiles-repr	assay-target	GI50
Clc1ccc([I+]c2ccc(Cl)cc2Cl)c(Cl)c1	UO-31 renal	1.48 µM
CC(=O)N(O)c1ccc(/C=C/c2ccccc2)cc1	UO-31 renal	0.759 µM
O=S(=O)(O)c1ccc2cc3nn(-c4ccc(/C=C/c5ccc(-n6nc7cc8ccc(S(=O)(=O)O)cc8cc7n6)cc5S(=O)(=O)O)c(S(=O)(=O)O)c4)nc3cc2c1	UO-31 renal	26.1 µM
O=C(O)CCCc1ccccc1	UO-31 renal	> 1000 µM
N#Cc1cc2c(cc1Cl)Sc1nnc(Nc3cccc4ccccc34)n1S2(=O)=O	UO-31 renal	7.41 µM
